Some compounds, each annotated with its measured remaining activity at 30 µM.
molecular target: RET-CCDC6 (PTC1) (Homo sapiens, UniProt P07949); construct: purchased Reaction Biology Corp; test: Kinase panel inhibition, radiolabeled [γ-33P] ATP (Reaction Biology Corp); assay type: biochemical; details: compound at 30uM; ATP 1 µM; Data 1; read-out: % Enzyme Activity (relative to DMSO controls) RET-CCDC6 (PTC1) Data 1
Sequence (P07949 whole entry, looked up): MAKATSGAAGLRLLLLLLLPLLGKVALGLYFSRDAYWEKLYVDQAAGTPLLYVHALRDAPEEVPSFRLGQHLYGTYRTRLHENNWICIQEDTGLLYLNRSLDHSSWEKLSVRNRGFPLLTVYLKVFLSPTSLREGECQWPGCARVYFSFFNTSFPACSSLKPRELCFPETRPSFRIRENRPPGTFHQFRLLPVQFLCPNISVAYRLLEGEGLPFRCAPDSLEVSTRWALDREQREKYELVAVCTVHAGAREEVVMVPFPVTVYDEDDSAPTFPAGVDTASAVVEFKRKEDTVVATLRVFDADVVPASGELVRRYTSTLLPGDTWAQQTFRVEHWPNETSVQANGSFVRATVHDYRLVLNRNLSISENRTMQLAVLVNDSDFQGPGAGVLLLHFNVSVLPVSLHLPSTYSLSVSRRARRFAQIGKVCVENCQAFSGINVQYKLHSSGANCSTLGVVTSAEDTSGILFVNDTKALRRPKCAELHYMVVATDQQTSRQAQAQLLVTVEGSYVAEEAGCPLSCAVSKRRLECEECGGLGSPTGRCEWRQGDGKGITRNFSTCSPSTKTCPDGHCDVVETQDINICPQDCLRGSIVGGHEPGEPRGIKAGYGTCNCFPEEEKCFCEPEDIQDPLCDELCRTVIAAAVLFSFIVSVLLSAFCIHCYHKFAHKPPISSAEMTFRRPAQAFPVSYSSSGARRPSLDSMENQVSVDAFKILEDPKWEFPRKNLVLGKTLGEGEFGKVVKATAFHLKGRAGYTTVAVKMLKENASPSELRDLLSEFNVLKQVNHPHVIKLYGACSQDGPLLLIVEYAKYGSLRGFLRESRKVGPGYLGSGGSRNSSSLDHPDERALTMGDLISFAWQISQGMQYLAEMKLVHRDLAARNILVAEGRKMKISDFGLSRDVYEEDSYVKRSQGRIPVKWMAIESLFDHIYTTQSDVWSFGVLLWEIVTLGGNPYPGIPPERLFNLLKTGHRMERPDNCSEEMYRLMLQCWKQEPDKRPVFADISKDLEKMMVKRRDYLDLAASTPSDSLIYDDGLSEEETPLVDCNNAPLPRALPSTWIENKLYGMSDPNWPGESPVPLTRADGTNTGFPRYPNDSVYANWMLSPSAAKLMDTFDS
Give just the number in %; leave the unit off.

Some solved cases for reference:
compound="CC(C)Nc1cc(Br)c2nccnc2c1 [Intermediate Compound 20, 8-Bromo-N-isopropylquin oxalin-6-amine]" measurement_label="remaining activity at 30 µM" result=7.86
compound="CNc1cc(-c2ccc(F)nc2)c2nccnc2c1 [Intermediate Compound 5]" measurement_label="remaining activity at 30 µM" result=5.67
compound="Nc1cc(-c2ccc(F)nc2)c2nccnc2c1 [Intermediate Compound 4]" measurement_label="remaining activity at 30 µM" result=20.9
compound="CC(C)Nc1cc(-c2ccc(F)nc2)c2nccnc2c1 [Intermediate Compound 8]" measurement_label="remaining activity at 30 µM" result=7.38

Now consider the entry below.
[ask] Give its remaining activity at 30 µM value. Item: Nc1cc(-c2cnc(Cl)nc2)c2nccnc2c1 [Intermediate Compound 16]
[reply] 13.2
